test system: Staphylococcus aureus; experiment: Antibacterial activity against Staphylococcus aureus CJ 251; assay type: functional
Answer each item with its documented MIC.
Give bare numbers, in µg/mL.

Use the examples below as a reference point.
{"columns": ["COMPOUND", "MIC, µg/mL"],
 "data": [
  ["CC(=O)O[C@H]1C[C@@]2(C)[C@@H](C[C@@H](O)[C@H]3[C@@]4(C)CC[C@@H](O)[C@@H](C)C4CC[C@@]32C)/C1=C(\\CCCCc1ccc(C(=O)c2ccccc2)cc1)C(=O)O (some centres undefined)", 1],
  ["CC(=O)O[C@H]1C[C@@]2(C)[C@@H](C[C@@H](O)[C@H]3[C@@]4(C)CC[C@@H](O)[C@@H](C)C4CC[C@@]32C)/C1=C(\\CCCCc1ccc(C2(C(F)(F)F)N=N2)cc1)C(=O)O (some centres undefined)", 1]
]}

For Staphylococcus aureus, give the measured MIC of the entry CC(=O)O[C@H]1C[C@@]2(C)[C@@H](C[C@@H](O)[C@H]3[C@@]4(C)CC[C@@H](O)[C@@H](C)C4CC[C@@]32C)/C1=C(\CCCCc1ccc(N=[N+]=[N-])cc1)C(=O)O (some centres undefined)
1

----------
What MIC was measured for each of the following?
tested on: Staphylococcus aureus; assay: Antibacterial activity against Staphylococcus aureus CJ 234 R; assay type: functional
Numbers only, in µg/mL.

The cases that follow already have their MIC on record.
{"columns": ["COMPOUND", "QUANTITY UNIT", "MIC"],
 "data": [
  ["CC(=O)O[C@H]1C[C@@]2(C)[C@@H](C[C@@H](O)[C@H]3[C@@]4(C)CC[C@@H](O)[C@@H](C)C4CC[C@@]32C)/C1=C(\\CCCCc1ccc(C(=O)c2ccccc2)cc1)C(=O)O (some centres undefined)", "µg/mL", 1],
  ["CC(=O)O[C@H]1C[C@@]2(C)[C@@H](C[C@@H](O)[C@H]3[C@@]4(C)CC[C@@H](O)[C@@H](C)C4CC[C@@]32C)/C1=C(\\CCCCc1ccc(N=[N+]=[N-])cc1)C(=O)O (some centres undefined)", "µg/mL", 1]
]}

Note: attention shifts to another entry.
Please look at this compound and report its MIC: CC(=O)O[C@H]1C[C@@]2(C)[C@@H](C[C@@H](O)[C@H]3[C@@]4(C)CC[C@@H](O)[C@@H](C)C4CC[C@@]32C)/C1=C(\CCCCc1ccc(C2(C(F)(F)F)N=N2)cc1)C(=O)O (some centres undefined)
1
